# test: self-splicing fitness, log relative to wild type (ln ratio); higher = more splicing; Tetrahymena group I intron in knt gene, E. coli kanamycin selection, DiMSum; sequences stand for … in CUCUCU…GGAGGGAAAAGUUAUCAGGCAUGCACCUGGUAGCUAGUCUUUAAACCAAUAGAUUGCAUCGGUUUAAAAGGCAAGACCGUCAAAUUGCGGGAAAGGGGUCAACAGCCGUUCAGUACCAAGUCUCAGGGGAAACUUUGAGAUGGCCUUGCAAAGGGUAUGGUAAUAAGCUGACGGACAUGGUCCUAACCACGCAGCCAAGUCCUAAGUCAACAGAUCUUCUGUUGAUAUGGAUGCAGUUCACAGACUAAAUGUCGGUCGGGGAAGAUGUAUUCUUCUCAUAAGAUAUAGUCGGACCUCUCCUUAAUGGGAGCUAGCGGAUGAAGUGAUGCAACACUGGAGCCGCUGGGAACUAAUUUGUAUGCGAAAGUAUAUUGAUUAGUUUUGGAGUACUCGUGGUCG;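 further: selection with 25 µg/mL kanamycin versus none on LB agar overnight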
# measurement setup: 37 °C
observation type: self-splicing fitness (ln)
Hey, just send me the number, nothing else.

Noted for CCUAAGCAAUAUUACGGUGU : its self-splicing fitness (ln) reads -1.89

Noted for CUGAAGCAAUAUUACGUGAA : its self-splicing fitness (ln) reads -1.93

Noted for GACCAGCAAUAUUACGCUUA : its self-splicing fitness (ln) reads 0.0868

Noted for UCCAAGCAAUAUUACGUCUG : its self-splicing fitness (ln) reads -3.01
